protein stability index: recorded values
B1: PRKX (parent)
chain: KLLVVDRTRRLGNMKNGANDVKHH

- Variants of: B1
- Procedure summary: protein stability index of a GFP-peptide fusion (GPS, HEK-293T) (PSI 1-6); higher = more stable;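 further: lentivirally expressed fusions sorted by FACS into six bins by GFP to DsRed ratio, PSI derived from sequencing read proportions per bin multiplied by bin number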
- Particulars: c terminus: a fixed tail appended

>  <Mutation name>
D6S

>  <protein stability index>
2.81

$$$$
>  <Mutation name>
V21C

>  <protein stability index>
2.67

$$$$
>  <Mutation name>
N16Y

>  <protein stability index>
2.38

$$$$
>  <Mutation name>
M14R

>  <protein stability index>
2.77

$$$$
>  <Mutation name>
N13K

>  <protein stability index>
2.81

$$$$
>  <Mutation name>
K22N

>  <protein stability index>
3.06

$$$$
>  <Mutation name>
K1W

>  <protein stability index>
1.55

$$$$
>  <Mutation name>
V21W

>  <protein stability index>
2.62

$$$$
>  <Mutation name>
G17S

>  <protein stability index>
2.85

$$$$
>  <Mutation name>
D6T

>  <protein stability index>
2.52

$$$$
>  <Mutation name>
L3F

>  <protein stability index>
2.72

$$$$
>  <Mutation name>
V21M

>  <protein stability index>
3.06

$$$$
>  <Mutation name>
G17K

>  <protein stability index>
3.06

$$$$
>  <Mutation name>
D20W

>  <protein stability index>
2.3

$$$$
>  <Mutation name>
R9Q

>  <protein stability index>
3.38

$$$$
>  <Mutation name>
G17H

>  <protein stability index>
3.4

$$$$
>  <Mutation name>
L11G

>  <protein stability index>
3.21

$$$$
>  <Mutation name>
R7M

>  <protein stability index>
2.43

$$$$
>  <Mutation name>
V5H

>  <protein stability index>
3.41

$$$$
>  <Mutation name>
R7L

>  <protein stability index>
2.92

$$$$
>  <Mutation name>
M14I

>  <protein stability index>
3.31

$$$$
>  <Mutation name>
L2T

>  <protein stability index>
3.61

$$$$
>  <Mutation name>
L3W

>  <protein stability index>
3.29

$$$$
>  <Mutation name>
T8H

>  <protein stability index>
2.97

$$$$
>  <Mutation name>
V4I

>  <protein stability index>
2.46

$$$$
>  <Mutation name>
N19A

>  <protein stability index>
2.84

$$$$
>  <Mutation name>
R10I

>  <protein stability index>
2.94

$$$$
>  <Mutation name>
H24I

>  <protein stability index>
2.23

$$$$
>  <Mutation name>
L3D

>  <protein stability index>
4.38

$$$$
>  <Mutation name>
G17R

>  <protein stability index>
2.55

$$$$
>  <Mutation name>
K15I

>  <protein stability index>
2.73

$$$$
>  <Mutation name>
G12H

>  <protein stability index>
3

$$$$
>  <Mutation name>
V4A

>  <protein stability index>
3.31

$$$$
>  <Mutation name>
K22I

>  <protein stability index>
2.32

$$$$
>  <Mutation name>
R7N

>  <protein stability index>
3.25

$$$$
>  <Mutation name>
N16L

>  <protein stability index>
2.69

$$$$
